Target: gamma-secretase (Homo sapiens)
Construct: a partially purified extract of IMR-32 cell membranes as the gamma-secretase enzyme preparation; endogenous in cells
Experiment: Gamma-secretase APP enzyme assay (cleavage of MBP-C125swe substrate, sandwich ELISA)
Settings: partially purified extract of IMR-32 cell membranes as enzyme, 2 h at 37° C, ELISA detection of cleavage product, read-out: γAPP

# compound, assay-system, IC50
data = [
    ("C=C1CC2CCCC(C1)N2S(=O)(=O)c1ccc(Cl)cc1", "gamma-secretase (Homo sapiens)", "< 1 µM"),
    ("CN(C(=O)OC(C)(C)C)C1CC2CCCC(C1)N2S(=O)(=O)c1ccc(Cl)cc1 (stereo not drawn)", "gamma-secretase (Homo sapiens)", "< 1 µM"),
    ("O=S(=O)(c1ccc(Br)s1)N1C2CCCC1CCC2", "gamma-secretase (Homo sapiens)", "2 to 5 µM"),
    ("O=S(=O)(c1ccc(Cl)cc1)N1C2CCCC1CCC2", "gamma-secretase (Homo sapiens)", "1 to 2.5 µM"),
    ("O=S(=O)(c1ccc(Cl)cc1)N1C2CCCC1COC2", "gamma-secretase (Homo sapiens)", "2 to 5 µM"),
    ("O=S(=O)(c1ccc(Cl)cc1)N1C2CCCC1CN(c1ccccc1)C2", "gamma-secretase (Homo sapiens)", "1 to 2.5 µM"),
]

----------
Reported IC50 values follow for various compounds
Molecular target: gamma-secretase (Homo sapiens, UniProt P49768)
Construct: a partially purified extract of IMR-32 cell membranes as the gamma-secretase enzyme preparation; endogenous in cells
Test: Gamma-secretase APP enzyme assay (cleavage of MBP-C125swe substrate, sandwich ELISA)
Details: partially purified extract of IMR-32 cell membranes as enzyme, 2 h at 37° C, ELISA detection of cleavage product, read-out: γAPP
value-kind: IC50

# compound, value-kind, result
records = [
    ("O=S(=O)(c1ccc(C(F)(F)F)cc1)N1C2CCCC1CCC2", "IC50", "2000 to 5000 nM"),
    ("O=S(=O)(c1ccc(Cl)cc1)N1C2CCCC1CC(=NO)C2", "IC50", "2000 to 5000 nM"),
    ("O=S(=O)(c1ccc(Br)c(F)c1)N1C2CCCC1CCC2", "IC50", "2000 to 5000 nM"),
    ("O=C1NCC2CCCC1N2S(=O)(=O)c1ccc(Cl)cc1 (stereo not shown)", "IC50", "2000 to 5000 nM"),
    ("CS(=O)(=O)OC1CC2CCCC(C1)N2S(=O)(=O)c1ccc(Cl)cc1 (stereo not shown)", "IC50", "1000 to 2500 nM"),
    ("O=S(=O)(c1ccc(Cl)s1)N1C2CCCC1CCC2", "IC50", "2000 to 5000 nM"),
    ("O=S(=O)(c1ccc(Cl)cc1)N1C2CCCC1CC2", "IC50", "2000 to 5000 nM"),
    ("O=S(=O)(c1ccc(Br)cc1)N1C2CCCC1CCC2", "IC50", "1000 to 2500 nM"),
    ("O=S(=O)(c1ccc(Cl)cc1)N1C2CCCC1CC(O)C2 (stereo not shown)", "IC50", "2000 to 5000 nM"),
    ("O=S(=O)(c1ccc(Br)cc1)N1C2CCCC1CC2", "IC50", "2000 to 5000 nM"),
    ("O=S(=O)(c1ccc(Cl)cc1)N1C2CCCC1CSC2", "IC50", "< 1000 nM"),
    ("O=C1CC2CCCC(C1)N2S(=O)(=O)c1ccc(Cl)cc1", "IC50", "< 1000 nM"),
    ("O=C1NC(=O)C2CCCC1N2S(=O)(=O)c1ccc(Cl)cc1", "IC50", "< 1000 nM"),
]
